Give protein stability index for every item shown.
Test Name: protein stability index of a GFP-peptide fusion (yeast GPS) (PSI 1-4); higher = more stable; sorted into four equal gates, so the index is relative within each strain
Recorded Conditions: san1∆
Please state the value as a number alone, without comment.

response.value for PNGTKKAYVRLTADYDA [RPL25] (field: protein stability index) = 3.07

response.value for QIISGNRVPDGFQDRSL [RPO31] (field: protein stability index) = 3.06

response.value for LQIESVTKETVHPRKSY [PRP8] (field: protein stability index) = 2.97

response.value for IRDNKLVSEKIINSTAL [RPC82] (field: protein stability index) = 2.99

response.value for GSKQADRMAKYLHIRDK [PGD1] (field: protein stability index) = 3.09

response.value for LARACAAQTNATFLKLA [RPT5] (field: protein stability index) = 2.93

response.value for KKASKVTVDADIDDILK [ISW2] (field: protein stability index) = 3

====

Give protein stability index for every item shown.
Test Name: protein stability index of a GFP-peptide fusion (yeast GPS) (PSI 1-4); higher = more stable; sorted into four equal gates, so the index is relative within each strain
Recorded Conditions: doa10∆
Please state the value as a number alone, without comment.

response.value for PNIRELGVKNLGLCCLL [YCG1] (field: protein stability index) = 2.91

response.value for LTHVDLIEKFLRYNPLE [RPB10] (field: protein stability index) = 2.91

response.value for GENAAEKPDNSNHNNLN [SNF2] (field: protein stability index) = 3.01

response.value for NFARQLLFNNDFPLLKV [RRP40] (field: protein stability index) = 2.91

response.value for SHGNPVVDFLKRNGSTL [FAS1] (field: protein stability index) = 3.02

response.value for DMLKYKEDEPVVARRSN [ITC1] (field: protein stability index) = 2.96

response.value for ATSVESVDIGVETILSG [FAS2] (field: protein stability index) = 2.93

response.value for DSNTTEILTSVDVLGTH [SIR4] (field: protein stability index) = 2.92

response.value for EDAIHIALLTLKESVEG [PRE8] (field: protein stability index) = 2.94

response.value for PSTGFKFSLPFEQKGSQ [YLR335W/NUP2] (field: protein stability index) = 2.99

====

Test Name: protein stability index of a GFP-peptide fusion (yeast GPS) (PSI 1-4); higher = more stable; sorted into four equal gates, so the index is relative within each strain
Recorded Conditions: ubr1∆
Give protein stability index for every item shown.
Please state the value as a number alone, without comment.

response.value for NVETYEQILQWVTEVLG [BRR2] (field: protein stability index) = 2

response.value for SPSERIEPLEINIQSFK [BRR2] (field: protein stability index) = 1.97

response.value for TMRRQKLTILQEGIEAI [RET1] (field: protein stability index) = 2.96

response.value for TVAVLPPNWKYESATAS [RPS13] (field: protein stability index) = 1.97

response.value for SAAKASQSRSAKAGLTF [HTA1] (field: protein stability index) = 3.05

response.value for MVHREFLKLANGGKFSK [RGR1] (field: protein stability index) = 2.91

response.value for AKGKSGVQTAYIDYSSK [RRP40] (field: protein stability index) = 2.91

response.value for LIFIACNDEDKDLETLY [ECM29] (field: protein stability index) = 2.92

response.value for VNLSEVMTVPGIDPTRI [RPO21] (field: protein stability index) = 3.05

response.value for NFHNSKKRMNSNQERCH [RRI1] (field: protein stability index) = 2.99

response.value for VTTCVYLACKVEECPQY [SSN8] (field: protein stability index) = 1.96

response.value for SNNTAATADTTHLHEAL [NUT1] (field: protein stability index) = 3.02

response.value for FGHIMEDFQVLRLGRGI [YDL088C/ASM4] (field: protein stability index) = 2.96

====

Test Name: protein stability index of a GFP-peptide fusion (yeast GPS) (PSI 1-4); higher = more stable; sorted into four equal gates, so the index is relative within each strain
Recorded Conditions: pdr5∆
Mark MET for reported protein stability index of 3 or greater; mark NOT MET for anything smaller.

Data request: Confirm if protein stability index reported for the sequence TETLTSKKIVPSPKKVA [SIR4] is 3 or above.
Data returned: NOT MET

Data request: Confirm if protein stability index reported for the sequence DTSGLKISNSEFFNPEI [SIN4] is 3 or above.
Data returned: MET

Data request: Confirm if protein stability index reported for the sequence DSSYQDIFAVNLEESSK [RET1] is 3 or above.
Data returned: NOT MET

Data request: Confirm if protein stability index reported for the sequence ENEVSDIDVTIVSKEYE [ESC2] is 3 or above.
Data returned: NOT MET

Data request: Confirm if protein stability index reported for the sequence VFMLDTKRLGTPESVKP [RGR1] is 3 or above.
Data returned: NOT MET

Data request: Confirm if protein stability index reported for the sequence TALDAEGAARGTSVYLV [DIS3] is 3 or above.
Data returned: NOT MET

Data request: Confirm if protein stability index reported for the sequence DQFRDVEITFGKEFGDV [RRP45] is 3 or above.
Data returned: MET

Data request: Confirm if protein stability index reported for the sequence SWNLTGTILSSAGDDGK [YGL100W/SEH1] is 3 or above.
Data returned: NOT MET

Data request: Confirm if protein stability index reported for the sequence EDAIHIALLTLKESVEG [PRE8] is 3 or above.
Data returned: NOT MET

Data request: Confirm if protein stability index reported for the sequence DDFEEDEDEEDDDDYNA [RPC31] is 3 or above.
Data returned: MET

Data request: Confirm if protein stability index reported for the sequence SRCHLVTKDTKKYSSKN [SRP68] is 3 or above.
Data returned: NOT MET

Data request: Confirm if protein stability index reported for the sequence LVDNLNAEVVAGNIKCR [BRR2] is 3 or above.
Data returned: NOT MET

Data request: Confirm if protein stability index reported for the sequence TATGIKVFSLDPQYLVD [ASC1] is 3 or above.
Data returned: NOT MET

Data request: Confirm if protein stability index reported for the sequence VLSSVREPDFWVIRKQR [MED6] is 3 or above.
Data returned: MET

Data request: Confirm if protein stability index reported for the sequence NISSSQQLLPAPQLFPY [DSN1] is 3 or above.
Data returned: NOT MET

Data request: Confirm if protein stability index reported for the sequence WCTTCKSAENIIKMTIP [RET1] is 3 or above.
Data returned: MET

Data request: Confirm if protein stability index reported for the sequence KQENSSRFTNVSVIAPE [YMR153W/NUP53] is 3 or above.
Data returned: NOT MET

====

Test Name: protein stability index of a GFP-peptide fusion (yeast GPS) (PSI 1-4); higher = more stable; sorted into four equal gates, so the index is relative within each strain
Recorded Conditions: san1∆
Give protein stability index for every item shown.
Please state the value as a number alone, without comment.

response.value for RGNIKVMFATNRPNTLD [RPT1] (field: protein stability index) = 3.02

response.value for IKKKRKELFEKTFDYVS [SMC1] (field: protein stability index) = 3.09

response.value for NQQQQQQQQQQQQRRQL [GAL11] (field: protein stability index) = 2.84

response.value for FVKNIRMLSFEDISKAT [RPN9] (field: protein stability index) = 1.91

response.value for MMCDFGTGNNNKLNFIV [DIB1] (field: protein stability index) = 1.96

response.value for ALGMMTRISSQFEKSRK [RET1] (field: protein stability index) = 1.37

response.value for KDEEIEKLLQQDREITN [MED8] (field: protein stability index) = 3.06

response.value for IFEISLQRKDYTSIVQC [YML103C/NUP188] (field: protein stability index) = 2.05

response.value for DTCAVSFDAVSDSIELL [YJR042W/NUP85] (field: protein stability index) = 2.51

response.value for NQNTLKEISARRYKLLT [POP1] (field: protein stability index) = 2.1

response.value for ITASTLLYADSLTAEAM [CYT1] (field: protein stability index) = 2.51

response.value for EFLFESLKNDLPQFRSS [ECM29] (field: protein stability index) = 3.28

response.value for NQTIKEAKDAIIELENI [YIL149C/MLP2] (field: protein stability index) = 3.06

response.value for AIIYQRGKDGKLHVAAK [YGL100W/SEH1] (field: protein stability index) = 2.9

response.value for FQAVIQKSINHPPDFKR [SNF2] (field: protein stability index) = 3.02

response.value for APNHSPEIDNLDDLVVL [RRP6] (field: protein stability index) = 3

response.value for LLISDTESNELIQKLQN [IRR1] (field: protein stability index) = 2.38

response.value for APLNLEIPAYEFDGDKV [RIP1] (field: protein stability index) = 2.55

response.value for RVKIANTSAATVHTATS [SSN2] (field: protein stability index) = 2.39

response.value for KVGIWPYFDYIFNDILA [YJL039C/NUP192] (field: protein stability index) = 1.75

response.value for KDGEIMLWNLAAKKAMY [ASC1] (field: protein stability index) = 2.26

response.value for DDFTDAIQFVKENELLF [YCS4] (field: protein stability index) = 2.58

response.value for IKTVVLVPQLGHVGSVQ [PRP8] (field: protein stability index) = 2.28

response.value for QGIFKNSSNYFGELQFA [AAR2] (field: protein stability index) = 2.41

Sourced from the supplement of paper PMC9732359
